- Tested on: MDA-MB-453
- experiment-notes: normalised response (% of control), CellTox Green; higher = less cell death (100 = DMSO, 0 = benzethonium chloride kill control)
- protocol-conditions: incubation time: 72 h
Record form. Attribute: normalised response. Fill in for each entry.
Field: numeric (%). Do not append units.

So, N[C@@H](Cc1ccc(N(CCCl)CCCl)cc1)C(=O)O [Melphalan] (125 nM) ? Its normalised response was 76.5

Memo: CN1CCN(c2nc(C3=C(c4c[nH]c5ccccc45)C(=O)NC3=O)c3ccccc3n2)CC1 [Sotrastaurin] (10000 nM) , reported normalised response: 107

Form field normalised response, entry CCc1cnn2c(NCc3ccc[n+]([O-])c3)cc(N3CCCC[C@H]3CCO)nc12 [Dinaciclib] (10 nM) : 104

Sample CC(C)C(=O)Nc1ccc([N+](=O)[O-])c(C(F)(F)F)c1 [Flutamide] (10000 nM) ; normalised response observed: 102

The compound Cc1c(C(=O)Nc2ccc(N3C[C@@H](C)O[C@@H](C)C3)nc2)cccc1-c1ccc(OC(F)(F)F)cc1 [Erismodegib] (10000 nM) showed normalised response equal to 63.9

# normalised response of CO[C@H]1C[C@@H]2CC[C@@H](C)[C@@](O)(O2)C(=O)C(=O)N2CCCC[C@H]2C(=O)O[C@H]([C@H](C)C[C@@H]2CC[C@@H](O)[C@H](OC)C2)CC(=O)[C@H](C)/C=C(\C)[C@@H](O)[C@@H](OC)C(=O)[C@H](C)C[C@H](C)/C=C/C=C/C=C/1C [Sirolimus] (10 nM) = 107

Entry CC(C)NC[C@@H](C(=O)N1CCN(c2ncnc3c2[C@H](C)C[C@H]3O)CC1)c1ccc(Cl)cc1 [GDC-0068] (10000 nM) ; normalised response = 90.9

normalised response recorded for this compound, CO[C@H]1C[C@@H]2CC[C@@H](C)[C@@](O)(O2)C(=O)C(=O)N2CCCC[C@H]2C(=O)O[C@H]([C@H](C)C[C@@H]2CC[C@@H](O)[C@H](OC)C2)CC(=O)[C@H](C)/C=C(\C)[C@@H](O)[C@@H](OC)C(=O)[C@H](C)C[C@H](C)/C=C/C=C/C=C/1C [Sirolimus] (1 nM) , is 109

Given item CN1CCc2c(c3ccccc3n2Cc2ccc(C(=O)NO)cc2)C1 [Tubastatin A] (1000 nM) , the value recorded as its normalised response is 105

Memo: Cc1c(N)nc([C@H](CC(N)=O)NC[C@H](N)C(N)=O)nc1C(=O)N[C@H](C(=O)N[C@H](C)[C@@H](O)[C@H](C)C(=O)N[C@H](C(=O)NCCc1nc(-c2nc(C(=O)NCCC[S+](C)C)cs2)cs1)[C@@H](C)O)[C@@H](OC1OC(CO)C(O)C(O)C1OC1OC(CO)C(O)C(OC(N)=O)C1O)c1cnc[nH]1 (stereo partly specified) [Bleomycin] (100 nM) , reported normalised response: 103

Value of measured normalised response for the entry O=NN(CCCl)C(=O)NC1CCCCC1 [Lomustine] (10000 nM) : 100

====

- Test system: HCC1599
- experiment-notes: normalised response (% of control), CellTox Green; higher = less cell death (100 = DMSO, 0 = benzethonium chloride kill control)
- protocol-conditions: incubation time: 72 h
Record form. Attribute: normalised response. Fill in for each entry.
Reply with just the number (in %).

Considering C[C@@H](C(=O)O)c1ccc(-c2ccccc2)c(F)c1 [Tarenflurbil] (10000 nM) , its normalised response with HCC1599 was recorded as 102

Record CCc1c(C(=O)C(N)=O)c2c(OCC(=O)O)cccc2n1Cc1ccccc1 [Varespladib] (100 nM) / HCC1599, normalised response recorded as 97

Tested on HCC1599, the item COc1cc2c(Oc3ccc(NC(=O)C4(C(=O)Nc5ccc(F)cc5)CC4)cc3F)ccnc2cc1OCCCN1CCOCC1 [Foretinib] (10 nM) showed normalised response equal to 102

The reported HCC1599 normalised response of C[C@@H]1C[C@H]2[C@@H]3CCC4=CC(=O)C=C[C@]4(C)[C@@]3(F)[C@@H](O)C[C@]2(C)[C@@]1(O)C(=O)CO [Dexamethasone] (100 nM) is 96

Reported normalised response (HCC1599) for entry Cn1cc(C[C@@H](N)C(=O)O)c2ccccc21 [1-methyl-D-tryptophan] (500 nM) is 85.2

CC(C)n1nc(-c2ccc3oc(N)nc3c2)c2c(N)ncnc21 [INK128] (100 nM) on HCC1599 gives normalised response = 95.5

// compound Nc1nc(Cl)nc2c1ncn2[C@@H]1O[C@H](CO)[C@@H](O)[C@@H]1F [Clofarabine] (1000 nM) , assay HCC1599, normalised response value: 81.2

Source of measurements: the supplement of paper PMC4862054
